The measurements presented in this section are drawn from patent US10626081B2.

target: FXR (Homo sapiens, UniProt Q96RI1); assay: In Vitro FXR Assay (TK): TK-ECRE-luc reporter in transfected CV-1 cells; conditions: CV-1 cells transfected with hFXR, hRXR, 18 h incubation, luminescence
Sequence (Q96RI1 whole entry): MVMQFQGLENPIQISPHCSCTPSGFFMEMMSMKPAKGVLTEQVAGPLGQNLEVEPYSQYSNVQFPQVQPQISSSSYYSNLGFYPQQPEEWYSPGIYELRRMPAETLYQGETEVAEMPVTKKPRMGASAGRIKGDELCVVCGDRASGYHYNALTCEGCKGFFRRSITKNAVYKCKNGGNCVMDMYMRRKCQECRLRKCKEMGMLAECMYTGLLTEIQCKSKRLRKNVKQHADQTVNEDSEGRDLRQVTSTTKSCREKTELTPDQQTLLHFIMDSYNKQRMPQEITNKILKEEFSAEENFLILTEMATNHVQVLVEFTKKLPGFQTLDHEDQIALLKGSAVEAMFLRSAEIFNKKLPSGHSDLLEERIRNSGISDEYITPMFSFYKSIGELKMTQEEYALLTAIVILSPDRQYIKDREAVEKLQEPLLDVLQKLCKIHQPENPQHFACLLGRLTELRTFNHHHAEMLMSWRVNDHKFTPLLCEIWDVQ
Sequence (P19793 whole entry partner): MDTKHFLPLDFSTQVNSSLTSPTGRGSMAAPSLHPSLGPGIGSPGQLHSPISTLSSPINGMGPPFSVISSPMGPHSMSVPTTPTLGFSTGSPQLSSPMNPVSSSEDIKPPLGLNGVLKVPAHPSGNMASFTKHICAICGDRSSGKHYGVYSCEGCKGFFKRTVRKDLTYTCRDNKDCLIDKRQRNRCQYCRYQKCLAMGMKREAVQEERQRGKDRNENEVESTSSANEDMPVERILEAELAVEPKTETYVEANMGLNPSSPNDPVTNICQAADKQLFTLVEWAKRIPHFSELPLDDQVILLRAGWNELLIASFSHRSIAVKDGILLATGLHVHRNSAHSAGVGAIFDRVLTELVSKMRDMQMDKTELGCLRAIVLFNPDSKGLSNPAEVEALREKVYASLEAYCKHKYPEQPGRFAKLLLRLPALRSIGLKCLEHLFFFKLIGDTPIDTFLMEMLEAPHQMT
MEASURED ENDPOINT: EC50

Worked examples follow.
>  <MOLECULE>
COC(=O)/C=C/c1cccc(N(Cc2ccc(-c3cscn3)cc2)C(=O)C2CCCCC2)c1

>  <EC50>
1 to 10 µM

$$$$
>  <MOLECULE>
COC(=O)/C=C/c1cccc(N(Cc2ccc(-c3ccc(N(C)C)cc3)cc2)C(=O)C2CCS(=O)(=O)CC2)c1

>  <EC50>
> 10 µM

$$$$

Query: What does the record list as EC50 for COC(=O)/C=C/c1cccc(N(Cc2ccc(-c3cccc(OC(F)(F)F)c3)cc2)C(=O)C2CCCCC2)c1 ?
Reply: 1 to 10 µM
